Data origin, for the record: patent US12297285B2

- Tested on: primary human hepatocytes
- test: IRES screening, Gaussia luciferase from LNP-oRNA (Table 27)
- stated-conditions: Gaussia luciferase luminescence in supernatant 48 hours after LNP-oRNA transfection, normalized to control (caprine kobuvirus IRES)
measure: [Mod] PHH Fold Change (Fold Change)
Your answer should be a plain number; it is taken to be in Fold Change.

Reported [Mod] PHH Fold Change for CC(C)CCC(C)CCOC(=O)CCCCCCCN(CCCCCCCC(=O)OCCC(C)CCC(C)C)CCCn1ccnc1 (centres unmarked) [Lipid 10a-100] was 1.228

Reported [Mod] PHH Fold Change for CCCCC(C)CCC(=O)OCCCCCCN(CCCCCCOC(=O)CCC(C)CCCC)CCCn1ccnc1C (centres unmarked) [Lipid 10a-114] was 0.7898

Reported [Mod] PHH Fold Change for Cc1nccn1CCCC(=O)OC(CCCCCCCCC(=O)OCCC(C)CC(C)(C)C)CCCCCCCCC(=O)OCCC(C)CC(C)(C)C (centres unmarked) [Lipid 10a-107] was 1.119

Reported [Mod] PHH Fold Change for CCCCCCCCC(CCCCCC)OCCOC(=O)CCN(CCCn1ccnc1C)CCC(=O)OCCOC(CCCCCC)CCCCCCCC (centres unmarked) [Lipid 10a-143] was 0.4209

Reported [Mod] PHH Fold Change for Cc1nccn1CCCN(CCCCCCCC(=O)OCCC(C)CCC(C)C)CCCCCCCC(=O)OCCC(C)CCC(C)C (centres unmarked) [Lipid 10a-102] was 0.5141

Reported [Mod] PHH Fold Change for CC(CCOC(=O)CCCCCCCCN(CCCCCCCCC(=O)OCCC(C)CC(C)(C)C)CCCn1ccnc1)CC(C)(C)C (centres unmarked) [Lipid 10a-104] was 0.7745

Reported [Mod] PHH Fold Change for Cc1nccn1CCCC(=O)OC(CCCCCCCC(=O)OCCC(C)CCC(C)C)CCCCCCCC(=O)OCCC(C)CCC(C)C (centres unmarked) [Lipid 10a-103] was 0.6471

Reported [Mod] PHH Fold Change for CCCCC(C)CCC(=O)OCCCCCCN(CCCCCCOC(=O)CCC(C)CCCC)CCCn1ccnc1 (centres unmarked) [Lipid 10a-112] was 0.8075

Reported [Mod] PHH Fold Change for CCCCCCCCC(CCCCCC)C(=O)OCCCCCCN(CCCCCCOC(=O)C(CCCCCC)CCCCCCCC)CCn1ccnc1 (centres unmarked) [Lipid 10a-129] was 0.6689

Reported [Mod] PHH Fold Change for CCCCC(CC)CCC(=O)OCCCCCCC(CCCCCCOC(=O)CCC(CC)CCCC)OC(=O)CCCn1ccnc1C (centres unmarked) [Lipid 10a-111] was 0.787

Reported [Mod] PHH Fold Change for CCCCCCCCCN(CCCn1ccnc1)C(CCCCCCCCC(=O)OCC(CCCC)CCCCCC)CCCCCCCCC(=O)OCC(CCCC)CCCCCC (centres unmarked) [Lipid 10a-142] was 0.468

Reported [Mod] PHH Fold Change for CCCCCCCCCN(CCn1ccnc1)C(CCCCCCCCC(=O)OCC(CCCC)CCCCCC)CCCCCCCCC(=O)OCC(CCCC)CCCCCC (centres unmarked) [Lipid 10a-146] was 0.5873

Reported [Mod] PHH Fold Change for CC(C)=CCC/C(C)=C/C(=O)OCCCCCCN(CCCCCCOC(=O)/C=C(\C)CCC=C(C)C)CCCn1ccnc1C [Lipid 10a-127] was 0.6745

Reported [Mod] PHH Fold Change for CCCCC(CC)CCC(=O)OCCCCCCN(CCCCCCOC(=O)CCC(CC)CCCC)CCCn1ccnc1 (centres unmarked) [Lipid 10a-109] was 0.8533
